System: NCI-H1975
Assay: Antiproliferative activity against gefitinib-resistant human NCI-H1975 cells harboring FAK after 72 hrs by CCK8 assay
Type: functional, cell-based
Settings: NCI-H1975, 72 h
RESULT_TYPE: IC50 (µM)

CHEMICAL_SMILES	RECORDED_NUMBER
CNC(=O)c1ccccc1Nc1nc(Nc2ccc(NS(=O)(=O)c3ccc(C)cc3)c(OC)c2)ncc1Cl	8.5

I = CNC(=O)c1ccccc1Nc1nc(Nc2ccc(NS(=O)(=O)c3ccc(C)cc3)cc2)ncc1Cl
II = CNC(=O)c1ccccc1Nc1nc(Nc2ccc(NS(=O)(=O)c3ccc(F)cc3)c(OC)c2)ncc1Cl
III = CNC(=O)c1ccccc1Nc1nc(Nc2ccc(Oc3ccc(NS(=O)(=O)C(F)(F)F)cc3)cc2)ncc1Cl
Arrange these compounds by their IC50, starting with the largest number. Arrange the labels as the request states and list them. II, I, III

* * *

System: NCI-H1975
Assay: Antiproliferative activity against gefitinib-resistant human NCI-H1975 cells harboring FAK after 72 hrs by CCK8 assay
Assay type: functional, cell-based
Details: NCI-H1975, 72 h
RESULT_TYPE: IC50 (µM)

Examples with answers:
CHEMICAL_SMILES	TARGET_UNDER_TEST	IC50 (µM)
CNC(=O)c1ccccc1Nc1nc(Nc2ccc(NS(=O)(=O)c3ccc(F)cc3)cc2)ncc1Cl	NCI-H1975	3.71
CNC(=O)c1ccccc1Nc1nc(Nc2ccc(NS(=O)(=O)c3ccc(OC)cc3)c(C)c2)ncc1Cl	NCI-H1975	4.89

A = CNC(=O)c1ccccc1Nc1nc(Nc2ccc(Oc3ccc(NS(C)(=O)=O)cc3)cc2)ncc1Cl
B = CNC(=O)c1ccccc1Nc1nc(Nc2ccc(NS(=O)(=O)c3ccc(OC)cc3)cc2)ncc1Cl
C = CNC(=O)c1ccccc1Nc1nc(Nc2ccc(NS(=O)(=O)c3ccc(C)cc3)c(C)c2)ncc1Cl
Parameters: sort_field (IC50), sort_dir (desc). Response format: the labels, sorted as the prompt asks. C, A, B

* * *

Tested on: ASPC1
Test: Antiproliferative activity against human AsPC1 cells after 72 hrs by CCK8 assay
Conditions: ASPC1, 72 h
RESULT_TYPE: IC50 (µM)

COMPOUND	UNIT	RECORDED_NUMBER
CNC(=O)c1ccccc1Nc1nc(Nc2ccc(Oc3ccc(NS(=O)(=O)C(F)(F)F)cc3)cc2)ncc1Cl	µM	2.39
CNC(=O)c1ccccc1Nc1nc(Nc2ccc(NS(=O)(=O)c3ccc(OC)cc3)cc2)ncc1Cl	µM	3.49
CNC(=O)c1ccccc1Nc1nc(Nc2ccc(NS(=O)(=O)c3ccc(F)cc3)c(OC)c2)ncc1Cl	µM	6.69
CNC(=O)c1ccccc1Nc1nc(Nc2ccc(NS(=O)(=O)c3ccc(F)cc3)cc2)ncc1Cl	µM	3.92
Nc1ccn([C@@H]2O[C@H](CO)[C@@H](O)C2(F)F)c(=O)n1 [GEMCITABINE]	µM	26.8

I = CNC(=O)c1ccccc1Nc1nc(Nc2ccc(NS(=O)(=O)c3ccc(OC)cc3)c(C)c2)ncc1Cl
II = CNC(=O)c1ccccc1Nc1nc(Nc2ccc(Oc3ccc(NS(C)(=O)=O)cc3)cc2)ncc1Cl
III = CNC(=O)c1ccccc1Nc1nc(Nc2ccc(NS(=O)(=O)c3ccc(C)cc3)c(OC)c2)ncc1Cl
IV = CNC(=O)c1ccccc1Nc1nc(Nc2ccc(N3CCOCC3)cc2OC)ncc1Cl
Which order do these items take when sorted by rising IC50? List them. Please, when replying, give the labels in the order that was requested. I, II, IV, III
(I: 1.78 µM, II: 2.75 µM, IV: 6.73 µM, III: 10.1 µM)

I = CNC(=O)c1ccccc1Nc1nc(Nc2ccc(NS(=O)(=O)c3ccc(C)cc3)c(C)c2)ncc1Cl
II = CNC(=O)c1ccccc1Nc1nc(Nc2ccc(NS(=O)(=O)c3ccc(C)cc3)cc2)ncc1Cl
Endpoint returns whichever of I and II has the numerically higher IC50. Provide the label of your selected option as the answer. I
